- Tested on: SK-OV-3
- TEST_DESCRIPTION: NCI tumour cell line growth inhibition, 48 h
The source made the active and inactive calls. No stated cut-off is given here; in the data, active = GI50 up to about 1.1 µM and inactive = higher.
Outcomes you can answer with include only these: active, inactive

Solved cases (4 shown):
COMPOUND	LABEL_CLASS
O=C(O)CS	inactive
C/C(=N\NS(=O)(=O)c1ccc(C)cc1)c1ccccn1	inactive
Cc1ccc(-c2cc(-c3ccccc3)nc(N)n2)c(O)c1	inactive
COc1cccc2c(=O)c3c(n(C)c12)OC(C(C)C)C3 (stereo unspecified)	inactive

Problem: Look up the recorded call for OC1C=C2C3CN(Cc4cc5c(cc43)OCO5)[C@H]2C[C@@H]1O (stereo partly specified) in this test.
Solution: inactive

Problem: Short answer needed: outcome of this test for OC(COC(c1ccccc1)(c1ccccc1)c1ccccc1)C(O)CC1SCCS1 (stereo unspecified) ?
Solution: inactive

Problem: Outcome? `COC(=O)C1=C(C)NC(C)=C(C(=O)OC)C1c1cccc(N=O)c1`
Solution: inactive

---

- System: MCF7
- TEST_DESCRIPTION: NCI tumour cell line growth inhibition, 48 h
Active and inactive are the calls of the source. Rule as the data show it: active = GI50 up to about 1.1 µM and inactive = higher.
ASSAY_METRIC: GI50

Example cases with answers are listed next.
COMPOUND	SYSTEM	GI50
O=C1CC(CC(O)C(O)CO)CC(=O)N1 (stereo unspecified)	MCF7	> 100 µM (inactive)
O=C1NC(O)c2ccccc2O1 (stereo unspecified)	MCF7	> 100 µM (inactive)
C(=N\c1ccc(-c2nc3ccccc3[nH]2)cc1)/c1ccco1	MCF7	21.1 µM (inactive)

Problem: Give GI50 for the following compound: CC(C)c1cc(C(C)C)c(S(=O)(=O)N/N=C2\CC3CCC2(C)C3(C)C)c(C(C)C)c1 (stereo unspecified)
Solution: 10 µM (inactive)

Problem: Hello, please tell me recorded GI50 for this one: `C/C(=N\Nc1ccc([N+](=O)[O-])cc1[N+](=O)[O-])c1sc(-n2nc(-c3ccccc3)cc2-c2ccccc2)nc1C`
Solution: 46.5 µM (inactive)

Problem: For the compound `O=c1[nH][nH]c(=O)n1CCCCCCn1c(=O)[nH][nH]c1=O` , give its measured GI50 value.
Solution: > 100 µM (inactive)

---

- Tested on: Malme-3M
- TEST_DESCRIPTION: NCI tumour cell line growth inhibition, 48 h
The source made the active and inactive calls. Rule as the data show it: active = GI50 up to about 1.1 µM and inactive = higher.
ASSAY_METRIC: GI50

Example results:
MOLECULE	GI50
CCOC(=O)CC(=O)Nc1c(C(=O)OCC)sc2nc(SC)nc(Nc3ccc(OC)c(OC)c3)c12	> 100 µM (inactive)
O=C1C2C3C=C4c5ccccc5N(c5ccccc5)C4(C2C(=O)N1c1ccc([N+](=O)[O-])cc1)[C@H]1C(=O)N(c2ccc([N+](=O)[O-])cc2)C(=O)[C@@H]31 (some centres undefined)	> 100 µM (inactive)
COc1c(OC(C)=O)ccc(/C=C2\N=C(C)OC2=O)c1[N+](=O)[O-]	> 100 µM (inactive)

Problem: Return reported GI50. Input molecule: `CC(=O)Nc1ccccc1C=C1c2ccccc2-c2ccccc21`
Solution: > 100 µM (inactive)

---

- Test system: A549
- TEST_DESCRIPTION: NCI tumour cell line growth inhibition, 48 h
The source made the active and inactive calls. Cut-off read from the data, not from the text of the source: active = GI50 up to about 1.1 µM and inactive = higher.
The following molecules are listed with their measured GI50 values.

Cc1ccc(NC(Nc2ccc(C)cc2C)=C(/C=C(\Cl)[N+](=O)[O-])[N+](=O)[O-])c(C)c1 17.3 µM (inactive)

Problem: Complete the entry with GI50 for `Cc1cn([C@@H]2C[C@H](CO)[C@@H]2O)c(=O)[nH]c1=O`
Solution: > 100 µM (inactive)

Problem: State, in one line, measured GI50 of `O=C1c2c(F)c(F)c(F)c(F)c2SC2=Nc3cccc4cccc(c34)N12`
Solution: 18.5 µM (inactive)

Problem: Could you please provide reported GI50 for `O=C1NC(=S)NC(=O)C1=C(O)Nc1ccccc1` ? Thanks!
Solution: 24.1 µM (inactive)

---

- Test system: UACC-62
- TEST_DESCRIPTION: NCI tumour cell line growth inhibition, 48 h
Calls of active or inactive are those of the source. No stated cut-off is given here; in the data, active = GI50 up to about 1.1 µM and inactive = higher.
The reply should be one of these categories: active, inactive

COMPOUND	SYSTEM	LABEL_CLASS
COc1ccc([N+](=O)[O-])c2c(NCCCN(C)C)c3ccccc3nc12	UACC-62	active
O=c1c2ccccc2oc2ccccc12.Oc1cccc2cccnc12	UACC-62	inactive
O=C(NCCN1CCOCC1)c1ccc(I)cc1	UACC-62	inactive

Problem: Any idea what this test logged for `O=C1NC2=NOC(=O)NC2=NO1` ?
Solution: inactive

Problem: Dear all, I need the recorded test outcome for `FC(F)(F)c1cccc(-c2nc3ccccc3c3c2[C@@]2(N4CCCC4)CCCC[C@@H]32)c1` , thank you.
Solution: inactive

Problem: Entry N#CCC1COc2ccccc2O1 (stereo not drawn) : call = ?
Solution: inactive

Problem: Outcome? `Cc1ccc(C)c2c1C/C(=C\c1ccccc1C(=O)O)C2=O`
Solution: inactive

Problem: // outcome(item) with item = `c1ccc(P(CCP(c2ccccn2)c2ccccn2)c2ccccc2)cc1`
Solution: inactive

---

- System: SNB-75
- TEST_DESCRIPTION: NCI tumour cell line growth inhibition, 48 h
The source made the active and inactive calls. Cut-off read from the data, not from the text of the source: active = GI50 up to about 1.1 µM and inactive = higher.
Pick one: true (1) = active, false (0) = inactive

MOLECULE	LABEL_CLASS
CN(C)c1ccc2oc(=O)c3ccccc3c2c1	false (0)
N#Cc1c(-c2ccco2)c2c(n(C3OC(CO)C(O)C(O)C3O)c1=S)CCCC2 (stereo not given)	true (1)
COc1ccc(/C=C/C(=O)c2ccccc2)cc1OC	false (0)
O=C1c2cccc(NCCNCCO)c2C(=O)c2cccc(NCCNCCO)c21	true (1)

From here, focus on the item given below.
Problem: Which result was noted for this molecule in the test: `C(=N\c1ccc(-c2nc3ccccc3[nH]2)cc1)/c1ccco1`
Solution: false (0)

---

- Test system: MDA-MB-231
- TEST_DESCRIPTION: NCI tumour cell line growth inhibition, 48 h
The source made the active and inactive calls. Rule as the data show it: active = GI50 up to about 1.1 µM and inactive = higher.
Field 'call' accepts true (1) for active, false (0) for inactive

MOLECULE	SYSTEM	LABEL_CLASS
NS(=O)(=O)c1ccc(NC(=O)N/N=C/c2ccccc2[N+](=O)[O-])cc1	MDA-MB-231	false (0)
CN(C)c1ccc(/C=N\NC(=O)CSCC(=O)N/N=C/c2ccc(N(C)C)cc2)cc1	MDA-MB-231	false (0)
COC(=O)/C=C/[C@@H]1[C@H](C)N1S(=O)(=O)c1ccc(C)cc1 (some centres undefined)	MDA-MB-231	false (0)
Cc1csc(N/C=C2\C(=O)Oc3ccccc3C2=O)n1	MDA-MB-231	false (0)

Problem: Outcome logged for `O=C1NC(=S)NC(=O)C1=C(O)Nc1ccccc1` in this assay:
Solution: false (0)

Problem: How did this test come out for `O=C1c2c(F)c(F)c(F)c(F)c2SC2=Nc3cccc4cccc(c34)N12` ?
Solution: false (0)

Problem: In this assay, the call recorded for `C/C(=N\NS(=O)(=O)c1ccc(C)cc1)c1ccccn1` was what?
Solution: false (0)

Problem: Look up the recorded call for Cn1c2c(c3ccccc31)CCN1C(=O)C34CCCC3CC21S4 (centres undefined) in this test.
Solution: false (0)

Problem: Which outcome did this test record for the molecule COc1cc(C2SCC(=O)N2c2ccc(-n3c(-c4ccccc4)nc4ccccc4c3=O)cc2)cc(OC)c1OC (centres undefined) ?
Solution: false (0)

Problem: Dear all, I need the recorded test outcome for COc1ccc(/C=C2\CCC(C)C3C2=NN(c2ccccc2)C3c2ccc(OC)c(OC)c2)cc1OC (centres undefined) , thank you.
Solution: false (0)

Problem: Which outcome did this test record for the molecule COC(=O)C(=O)C(C(=O)C(=O)Nc1ccc(Cl)cc1Cl)c1nc2ccc(Cl)cc2nc1O (centres undefined) ?
Solution: false (0)

---

- System: HL-60
- TEST_DESCRIPTION: NCI tumour cell line growth inhibition, 48 h
Calls of active or inactive are those of the source. No stated cut-off is given here; in the data, active = GI50 up to about 1.1 µM and inactive = higher.
ASSAY_METRIC: GI50

Recorded GI50, per entry:
MOLECULE	GI50
COC(=O)C1(C(=O)OC)CC2c3c(c4ccccc4n3C)CC(C1=O)N2Cc1ccccc1 (stereo not drawn)	96.8 µM (inactive)
CN(C)c1ccc2oc(=O)c3ccccc3c2c1	> 100 µM (inactive)

# input for lookup
Problem: Determine its reported GI50: COC(=O)/C=C/[C@@H]1[C@H](C)N1S(=O)(=O)c1ccc(C)cc1 (stereo partly drawn)
Solution: > 100 µM (inactive)

---

- Tested on: K562
- TEST_DESCRIPTION: NCI tumour cell line growth inhibition, 48 h
The source made the active and inactive calls. No stated cut-off is given here; in the data, active = GI50 up to about 1.1 µM and inactive = higher.
ASSAY_METRIC: GI50

Some compounds with known GI50 results, for comparison:
COMPOUND	SYSTEM	GI50
COc1ccc(C2C(Cl)C(=O)N2NC(=O)c2ccc(N)cc2)cc1OC (stereo not drawn)	K562	3.12 µM (inactive)
CN(C)c1ccc(/C=C/c2ccnc3ccccc23)cc1	K562	33.5 µM (inactive)
Cc1cc(S(=O)(=O)Nc2nnc3cnc4ccccc4n23)c(S)cc1Cl	K562	> 100 µM (inactive)
CCCCCCCCC(C)CCCCCCCCC(=O)OCC(COP(=O)([O-])OCC[N+](C)(C)C)OC(=O)CCCCCCCCC(C)CCCCCCCC (stereo not drawn)	K562	> 100 µM (inactive)

# evaluate next
Problem: Look up and state reported GI50 for `CCOC(=O)NC(=O)c1cn(CCN2CCN(C(=O)NCCCCCCNC(=O)N3CCN(CCn4cc(C(=O)NC(=O)OCC)c(=O)n(CCN(CC)CC)c4=O)CC3)CC2)c(=O)n(CCC(CC)CC)c1=O`
Solution: > 100 µM (inactive)
